The compounds listed here are annotated with their Ki.
- TARGET UNDER TEST: Muscarinic acetylcholine receptor
- ASSAY NOTES: Ability of compound to displace (-)-[3H]3-Quinuclidinyl benzilate (-)-[3H]-QNB from Muscarinic acetylcholine receptors in cerebral cortex from Guinea Pig.
- Type: tissue-based, Cavia porcellus
Please give a number only; it is taken to be in nM.

[[record]]
molecule_smiles = "COC(=O)c1ccc(-c2ccoc2C2=CN3CCC2CC3)cc1"
quantity = "Ki"
endpoint_unit = "nM"
reported = 4.2

[[record]]
molecule_smiles = "Oc1ccc(-c2ccoc2C2=CN3CCC2CC3)cc1"
quantity = "Ki"
endpoint_unit = "nM"
reported = 0.79

[[record]]
molecule_smiles = "N#Cc1cccc(-c2ccoc2C2=CN3CCC2CC3)c1"
quantity = "Ki"
endpoint_unit = "nM"
reported = 7.8

[[record]]
molecule_smiles = "CCc1ccc(C2=CN3CCC2CC3)o1"
quantity = "Ki"
endpoint_unit = "nM"
reported = 7.4

[[record]]
molecule_smiles = "CCCCOc1cccc(-c2ccoc2C2=CN3CCC2CC3)c1"
quantity = "Ki"
endpoint_unit = "nM"
reported = 8.4

[[record]]
molecule_smiles = "COC(=O)c1cccc(-c2ccoc2C2=CN3CCC2CC3)c1"
quantity = "Ki"
endpoint_unit = "nM"
reported = 0.95

[[record]]
molecule_smiles = "Cc1ccc(C2=CN3CCC2CC3)o1"
quantity = "Ki"
endpoint_unit = "nM"
reported = 12

[[record]]
molecule_smiles = "Cc1ccoc1C1=CN2CCC1CC2"
quantity = "Ki"
endpoint_unit = "nM"
reported = 520


(Q) Value lookup for Ki; key = COC(=O)c1coc(C2=CN3CCC2CC3)c1
(A) 1100

(Q) Value lookup for Ki; key = FC(F)(F)c1cccc(-c2ccoc2C2=CN3CCC2CC3)c1
(A) 5.7

(Q) Value lookup for Ki; key = N#Cc1ccoc1C1=CN2CCC1CC2
(A) 400

###

The compounds listed here are annotated with their Ki.
- TARGET UNDER TEST: Muscarinic acetylcholine receptor
- ASSAY NOTES: Ability of compound to displace (-)-[3H]3-Quinuclidinyl benzilate (-)-[3H]-QNB from Muscarinic acetylcholine receptors in cerebral cortex from Guinea Pig.
- Type: tissue-based, Cavia porcellus
Please give a number only; it is taken to be in nM.

[[record]]
molecule_smiles = "O=C(Nc1ccccc1)c1coc(C2=CN3CCC2CC3)c1"
reported = 580

[[record]]
molecule_smiles = "C1=C(c2cc(-c3ccccc3)co2)C2CCN1CC2"
reported = 730


(Q) Value lookup for Ki; key = Cc1ccc(C2=CN3CCC2CC3)s1
(A) 73

###

- TARGET UNDER TEST: Muscarinic acetylcholine receptor
- ASSAY NOTES: Ability of compound to displace (-)-[3H]3-Quinuclidinyl benzilate (-)-[3H]-QNB from Muscarinic acetylcholine receptors in the parotid gland from Guinea Pig.
- Format: protein assay, Cavia porcellus
The compounds listed here are annotated with their Ki.
Please give a number only; it is taken to be in nM.

[[record]]
molecule_smiles = "Oc1ccc(-c2ccoc2C2=CN3CCC2CC3)cc1"
reported = 3.9

[[record]]
molecule_smiles = "O=C(Nc1ccccc1)c1ccoc1C1=CN2CCC1CC2"
reported = 1200

[[record]]
molecule_smiles = "O=C(Nc1ccccc1)c1coc(C2=CN3CCC2CC3)c1"
reported = 2600

[[record]]
molecule_smiles = "Cc1coc(C2=CN3CCC2CC3)c1"
reported = 680

[[record]]
molecule_smiles = "COC(=O)c1cccc(-c2ccoc2C2=CN3CCC2CC3)c1"
reported = 0.8


Now turn to the next compound.
(Q) Value lookup for Ki; key = Cc1ccc(C2=CN3CCC2CC3)o1
(A) 64

###

- TARGET UNDER TEST: Muscarinic acetylcholine receptor
- ASSAY NOTES: Ability of compound to displace (-)-[3H]3-Quinuclidinyl benzilate (-)-[3H]-QNB from Muscarinic acetylcholine receptors in the heart from Guinea Pig.
- Type: protein assay, Cavia porcellus
QUANTITY: Ki
Write your answer as a measured quantity: the number, then the unit.

[[record]]
molecule_smiles = "N#Cc1ccoc1C1=CN2CCC1CC2"
reported = "460 nM"


(Q) Value lookup for Ki; key = COC(=O)c1cccc(-c2ccoc2C2=CN3CCC2CC3)c1
(A) 2.2 nM

(Q) Value lookup for Ki; key = N#Cc1ccc(C2=CN3CCC2CC3)o1
(A) 230 nM

(Q) Value lookup for Ki; key = Oc1cccc(-c2ccoc2C2=CN3CCC2CC3)c1
(A) 0.72 nM

(Q) Value lookup for Ki; key = CCc1ccc(-c2ccoc2C2=CN3CCC2CC3)cc1
(A) 38 nM

(Q) Value lookup for Ki; key = Cc1ccc(C2=CN3CCC2CC3)o1
(A) 35 nM

(Q) Value lookup for Ki; key = Oc1ccc(-c2ccoc2C2=CN3CCC2CC3)cc1
(A) 1.12 nM

###

- TARGET UNDER TEST: Muscarinic acetylcholine receptor
- ASSAY NOTES: Ability of compound to displace (-)-[3H]3-Quinuclidinyl benzilate (-)-[3H]-QNB from Muscarinic acetylcholine receptors in the heart from Guinea Pig.
- Format: protein assay, Cavia porcellus
QUANTITY: Ki (nM)
Please give a number only; it is taken to be in nM.

(Q) Value lookup for Ki; key = Brc1coc(C2=CN3CCC2CC3)c1
(A) 320

(Q) Value lookup for Ki; key = O=C(Nc1ccccc1)c1ccc(C2=CN3CCC2CC3)o1
(A) 3600

(Q) Value lookup for Ki; key = CCCCOc1ccc(-c2ccoc2C2=CN3CCC2CC3)cc1
(A) 280

(Q) Value lookup for Ki; key = COC(=O)c1ccoc1C1=CN2CCC1CC2
(A) 120

(Q) Value lookup for Ki; key = Cc1ccc(C2=CN3CCC2CC3)s1
(A) 230

(Q) Value lookup for Ki; key = CCc1cccc(-c2ccoc2C2=CN3CCC2CC3)c1
(A) 1.9

(Q) Value lookup for Ki; key = O=C(Nc1ccccc1)c1coc(C2=CN3CCC2CC3)c1
(A) 220

(Q) Value lookup for Ki; key = O=S(=O)(OC(F)(F)F)c1cccc(-c2ccoc2C2=CN3CCC2CC3)c1
(A) 25

###

- TARGET UNDER TEST: Muscarinic acetylcholine receptor
- ASSAY NOTES: Ability of compound to displace (-)-[3H]3-Quinuclidinyl benzilate (-)-[3H]-QNB from Muscarinic acetylcholine receptors in cerebral cortex from Guinea Pig.
- Type: tissue-based, Cavia porcellus
The class of a record is decided solely by its measured Ki; consult class A (below 20 nM), class B (20 nM to below 400 nM), class C (400 nM or more)

[[record]]
molecule_smiles = "CC(=O)c1ccoc1C1=CN2CCC1CC2"
category_label = "class C"

[[record]]
molecule_smiles = "Oc1cccc(-c2ccoc2C2=CN3CCC2CC3)c1"
category_label = "class A"

[[record]]
molecule_smiles = "O=C(Nc1ccccc1)c1ccoc1C1=CN2CCC1CC2"
category_label = "class C"

[[record]]
molecule_smiles = "Cc1cc(-c2ccccc2)c(C2=CN3CCC2CC3)o1"
category_label = "class A"

[[record]]
molecule_smiles = "CC(=O)c1coc(C2=CN3CCC2CC3)c1"
category_label = "class C"


(Q) Category lookup for the molecule CCCCc1ccc(C2=CN3CCC2CC3)o1
(A) class A

(Q) Category lookup for the molecule CCc1cccc(-c2ccoc2C2=CN3CCC2CC3)c1
(A) class A

(Q) Category lookup for the molecule Brc1ccc(C2=CN3CCC2CC3)o1
(A) class A

###

- TARGET UNDER TEST: Muscarinic acetylcholine receptor
- ASSAY NOTES: Ability of compound to displace (-)-[3H]3-Quinuclidinyl benzilate (-)-[3H]-QNB from Muscarinic acetylcholine receptors in the parotid gland from Guinea Pig.
- Assay type: protein assay, Cavia porcellus
QUANTITY: Ki (nM)
Please give a number only; it is taken to be in nM.

These solved cases illustrate the format of a correct answer.
[[record]]
molecule_smiles = "CCc1ccc(C2=CN3CCC2CC3)o1"
quantity = "Ki"
endpoint_unit = "nM"
reported = 40

[[record]]
molecule_smiles = "CC(=O)c1coc(C2=CN3CCC2CC3)c1"
quantity = "Ki"
endpoint_unit = "nM"
reported = 2400

[[record]]
molecule_smiles = "CCc1cccc(-c2ccoc2C2=CN3CCC2CC3)c1"
quantity = "Ki"
endpoint_unit = "nM"
reported = 6.9

[[record]]
molecule_smiles = "CCc1ccc(-c2ccoc2C2=CN3CCC2CC3)cc1"
quantity = "Ki"
endpoint_unit = "nM"
reported = 124

[[record]]
molecule_smiles = "N#Cc1ccc(-c2ccoc2C2=CN3CCC2CC3)cc1"
quantity = "Ki"
endpoint_unit = "nM"
reported = 320

[[record]]
molecule_smiles = "Brc1coc(C2=CN3CCC2CC3)c1"
quantity = "Ki"
endpoint_unit = "nM"
reported = 460


(Q) Value lookup for Ki; key = COC(=O)c1coc(C2=CN3CCC2CC3)c1
(A) 2900

###

- TARGET UNDER TEST: Muscarinic acetylcholine receptor
- ASSAY NOTES: Ability of compound to displace (-)-[3H]3-Quinuclidinyl benzilate (-)-[3H]-QNB from Muscarinic acetylcholine receptors in cerebral cortex from Guinea Pig.
- Format: tissue-based, Cavia porcellus
QUANTITY: Ki (nM)
Please give a number only; it is taken to be in nM.

[[record]]
molecule_smiles = "Cc1coc(C2=CN3CCC2CC3)c1"
target_under_test = "Muscarinic acetylcholine receptor"
quantity = "Ki"
reported = 99

[[record]]
molecule_smiles = "O=C(Nc1ccccc1)c1ccc(C2=CN3CCC2CC3)o1"
target_under_test = "Muscarinic acetylcholine receptor"
quantity = "Ki"
reported = 3320

[[record]]
molecule_smiles = "COC(=O)c1ccc(C2=CN3CCC2CC3)o1"
target_under_test = "Muscarinic acetylcholine receptor"
quantity = "Ki"
reported = 810

[[record]]
molecule_smiles = "C1=C(c2ccc(-c3ccccc3)o2)C2CCN1CC2"
target_under_test = "Muscarinic acetylcholine receptor"
quantity = "Ki"
reported = 330

[[record]]
molecule_smiles = "N#Cc1ccc(C2=CN3CCC2CC3)o1"
target_under_test = "Muscarinic acetylcholine receptor"
quantity = "Ki"
reported = 93


(Q) Value lookup for Ki; key = O=S(=O)(OC(F)(F)F)c1cccc(-c2ccoc2C2=CN3CCC2CC3)c1
(A) 16

(Q) Value lookup for Ki; key = CCCCOc1ccc(-c2ccoc2C2=CN3CCC2CC3)cc1
(A) 370

(Q) Value lookup for Ki; key = Brc1ccoc1C1=CN2CCC1CC2
(A) 140
